The reader will find reported MC4R selectivity vs MC3R values listed item by item below.
# study_target: human MC4R (Homo sapiens, UniProt P32245)
# Construct: host or cells: HEK-293 cells stably expressing the GScAMP22F split-luciferase cAMP sensor and hMC4R, G418 selection
# Sequence (P32245 whole entry): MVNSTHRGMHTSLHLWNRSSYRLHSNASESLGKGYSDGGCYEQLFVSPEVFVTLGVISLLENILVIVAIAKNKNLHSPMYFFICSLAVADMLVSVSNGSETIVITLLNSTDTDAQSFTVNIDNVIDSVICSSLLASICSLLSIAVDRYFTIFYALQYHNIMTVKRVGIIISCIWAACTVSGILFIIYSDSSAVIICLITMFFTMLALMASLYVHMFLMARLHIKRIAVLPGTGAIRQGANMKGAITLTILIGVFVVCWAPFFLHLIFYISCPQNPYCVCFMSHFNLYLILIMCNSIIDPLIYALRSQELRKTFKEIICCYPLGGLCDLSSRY
# test: split-luciferase cAMP sensor assay, agonist mode (measurement window 1), hMC4R
# Assay type: cell-based
Positions of bridges follow the written chain, without caps; N, C: chain ends. Non-standard residues stand in square brackets, D forms with d. Residues, ends and D or L forms follow the SMILES beside them. dPhe(4-I) = N[C@H](Cc1ccc(I)cc1)C(=O)O; Cit = NC(=O)NCCC[C@H](N)C(=O)O; Nle = CCCC[C@H](N)C(=O)O; Aib = CC(C)(N)C(=O)O

compound	study_target	MC4R selectivity vs MC3R
CCCC[C@H](NC(=O)[C@H](CCCNC(=N)N)NC(C)=O)C(=O)N[C@H]1CSSC[C@@H](C(N)=O)NC(=O)[C@@H](Cc2c[nH]c3ccccc23)NC(=O)[C@H](CCCNC(=N)N)NC(=O)[C@@H](Cc2ccc(OC)cc2)NC(=O)[C@H](CCCNC(=N)N)NC1=O [CTX-1615] (Ac-R[Nle]CR[dY](Me)R[dW]C-NH2; disulfide 3-8)	human MC4R (Homo sapiens, UniProt P32245)	2.14
CCCC[C@H](NC(C)=O)C(=O)N[C@H]1CSSC[C@@H](C(N)=O)NC(=O)[C@@H](Cc2c[nH]c3ccccc23)NC(=O)[C@H](CCCNC(=N)N)NC(=O)[C@@H](Cc2ccc(I)cc2)NC(=O)[C@H](Cc2c[nH]cn2)NC1=O [CTX-1234] (Ac-[Nle]CH[dPhe(4-I)]R[dW]C-NH2; disulfide 2-7 (inferred))	human MC4R (Homo sapiens, UniProt P32245)	1.32

Would you kindly look at the next entry?
Query :: Request the reported MC4R selectivity vs MC3R associated with CC(=O)N[C@@H](CCCNC(=N)N)C(=O)N[C@H]1CSSC[C@@H](C(N)=O)NC(=O)[C@@H](Cc2c[nH]c3ccccc23)NC(=O)[C@H](CCCNC(N)=O)NC(=O)[C@@H](Cc2ccccc2)NC(=O)[C@H](CCCNC(=N)N)NC(=O)C(C)(C)NC1=O [CTX-1271] (Ac-RC[Aib]R[dF][Cit][dW]C-NH2; disulfide 2-8 (inferred))
Result :: 1.63
